Listing: GI50 of selected compounds
- Tested on: NCI-H226
- assay: NCI tumour cell line growth inhibition, 48 h
Calls of active or inactive are those of the source. Rule as the data show it: active = GI50 up to about 1.1 µM and inactive = higher.

Recorded GI50, per entry:
compound | target_or_system | GI50
C/C=C(/C)C(=O)O[C@H]1C(C)=C[C@]23C(=O)[C@@H](C=C(COC(C)=O)[C@@H](O)[C@]12O)[C@H]1[C@@H](C[C@H]3C)[C@@]1(C)OC(=O)/C(C)=C\C | NCI-H226 | 3.07 µM (inactive)
O=C(O)CN1C(=O)OC(c2ccccc2)C1=O (stereo not drawn) | NCI-H226 | > 100 µM (inactive)
O=C(c1ccccc1)c1ccc2[nH]c(-c3c(Cl)c(Cl)c(Cl)c(Cl)c3-c3nnc(-c4ccccc4)o3)nc2c1 | NCI-H226 | 22.8 µM (inactive)
CN(C)Cc1cc(C(=O)/C=C/c2cccc(Cl)c2)cc(CN(C)C)c1O | NCI-H226 | 4.31 µM (inactive)
CCc1cccc(C)c1NC(=O)CC1Sc2ccccc2NC1=O (stereo not drawn) | NCI-H226 | 16 µM (inactive)

Memo: O=C(Nc1sccc1S(=O)(=O)c1ccc(Cl)cc1)c1ccc(Cl)cc1 , reported GI50: > 100 µM (inactive)

Entry CC1(C)CC(=O)c2c(nc3ccc4ccccc4c3c2-c2ccc(NC(=O)CCCCC(=O)Nc3ccc(-c4c5c(nc6ccc7ccccc7c46)CC(C)(C)CC5=O)cc3)cc2)C1 , GI50 reported as > 100 µM (inactive)

Just so you know, measured GI50 for Oc1cc(O)c2c(c1)OC(c1ccc(O)c(O)c1)C(O)C2c1c(O)cc(O)c2c1OC(c1ccc(O)c(O)c1)C(O)C2 (stereo not drawn) came out at > 100 µM (inactive)

* * *

- Test system: OVCAR-3
- assay: NCI tumour cell line growth inhibition, 48 h
Activity calls are given as the source filed them. No stated cut-off is given here; in the data, active = GI50 up to about 1.1 µM and inactive = higher.
Please state which outcome applies, choosing from Yes (active), No (inactive)

molecule | classification
OC1C2[C@@H](O)CCCN2C[C@@H](O)[C@H]1O (stereo partly specified) | No
N/C(S)=N/N=C/c1ccc(O)cn1 | No
O=CC1C(Cl)=Nc2nc3ccccc3n2C1c1ccc([N+](=O)[O-])cc1 (stereo unspecified) | No
O=S(=O)(c1ccccc1)N1CN2CN(C1)CN(S(=O)(=O)c1ccccc1)C2 | No
CC(C)CCNC(=O)c1ccc(CNC(=O)/C=C/c2ccc(OCc3ccccc3)cc2)cc1 | No
CC1=C2[C@@H](c3ccccc3)C3C=CC2(C=C3C(F)(F)F)N(C(=O)NC2CCCCC2)C1=O (stereo partly specified) | No
O=C(O)CCNc1ncc2c(n1)-c1ccccc1OC2 | No
O=C1CSCc2sccc21 | No

Given NC1=CN(CCCO)C2=N/C(=C\c3ccco3)C(=O)N12 , state the outcome it received in this test.
No

I would be grateful if you could indicate the recorded call for Cn1c(=O)c2c(nc(Cc3ccccc3)n2CC(=O)O)n(C)c1=O .
No

* * *

# GI50 per record follows
- Tested on: SNB-19
- assay: NCI tumour cell line growth inhibition, 48 h
Activity calls are given as the source filed them. Rule as the data show it: active = GI50 up to about 1.1 µM and inactive = higher.

molecule | GI50
CN1CCc2c(sc3nc(S)nc(S)c23)C1 | > 100 µM (inactive)
Cc1ccc(/N=N/c2c(O)c(C(=O)Nc3ccccc3)cc3ccccc23)c([N+](=O)[O-])c1 | > 100 µM (inactive)
O=C1CC2C(=O)N(Cc3ccccc3)C1C=C2S(=O)(=O)c1ccccc1 (configuration not stated) | > 100 µM (inactive)
O=C(C(Cl)=C(N1CCCCC1)N1CCCCC1)C(Cl)Cl | > 100 µM (inactive)
O=C1O[C@H](C(Cl)(Cl)Cl)N2CCCC12 (some centres not stated) | > 100 µM (inactive)

Entry C/C(CN1C(=O)c2ccccc2C1=O)=N\NS(=O)(=O)c1ccc(F)cc1 ; GI50 = > 100 µM (inactive)

For record CCOC(=O)/C1=C(\C)N(c2ccc(C)cc2)C(=O)c2ccccc2C(=O)c2c(OC(C)=O)ccc(OC(C)=O)c21 the listed GI50 is 25.2 µM (inactive)

Given item CCOC(=N)CC(=O)Nc1ccc(Cl)cc1 , the value recorded as its GI50 is > 100 µM (inactive)

Record summary for Cc1noc(C)c1CCCOC1COc2ccccc2OCCOCCOc2ccccc2OC1 : reported GI50 = > 100 µM (inactive)

Quick note, GI50 for C[C@H](CCC(=O)O)[C@H]1CC[C@H]2[C@@H]3[C@H](O)C[C@@H]4C[C@H](O)CC[C@]4(C)[C@H]3CC[C@]12C landed at 43.8 µM (inactive)

GI50 in this record for CCOC(=O)/C=C(/C(=O)OCC)n1ccc(=O)[nH]c1=O : 15.4 µM (inactive)

Memo: NC(=O)c1cc(-c2ccc(-n3ccnc3)cc2)nnc1O , reported GI50: > 100 µM (inactive)

Reported GI50 of NCC(=O)NC(CO)C(=O)O (configuration not stated) : > 100 µM (inactive)

Data point: COc1cc(COC(=O)NC(Cc2cccs2)C(=O)O)c([N+](=O)[O-])cc1OC (configuration not stated) ; GI50 = > 100 µM (inactive)

molecule COc1ccc(Nc2nc3ccccc3nc2-c2cccs2)cc1 , GI50 observed: > 100 µM (inactive)

Input CCc1cccc(CC)c1NC(=O)CC1SC(N)=NC1=O (configuration not stated) . Output GI50: > 100 µM (inactive)

* * *

- Tested on: NCI-H23
- assay: NCI tumour cell line growth inhibition, 48 h
Calls of active or inactive are those of the source. Cut-off read from the data, not from the text of the source: active = GI50 up to about 1.1 µM and inactive = higher.
Bench note: report the call from YES = active, NO = inactive

compound | classification
Cc1ccc(Nc2nc(C)c(C(=O)CC(=O)C(=O)Nc3ccc(Cl)cc3)s2)cc1 | NO
CN(C)CCn1c2ccccc2c2nc3cc4ccccc4cc3nc21 | NO
CCOC(=O)CC1=N/C(=N/c2cc(Cl)ccc2Cl)SC1 | NO
CCOC(=O)c1cc(C2=C(S)N(CC(C)CC)CC2)c(C(=O)CC)[nH]1 (stereo unspecified) | NO
CCC(C)OC(=O)/C(Br)=C1/OC(=O)c2ccccc2-c2ccccc21 (stereo unspecified) | NO
Cc1ccc(S(=O)(=O)NCCSCCNS(=O)(=O)c2ccc(C)cc2)cc1 | NO

Consider the additional compound presented here.
Tell me the recorded outcome of this test for N#Cc1ccnc(C(=O)N2CCCC2C(=O)O)c1 (stereo unspecified) .
NO

* * *

- Tested on: SNB-75
- assay: NCI tumour cell line growth inhibition, 48 h
Calls of active or inactive are those of the source. No stated cut-off is given here; in the data, active = GI50 up to about 1.1 µM and inactive = higher.
The categories you may choose from are true (1) = active, false (0) = inactive

For orientation, consider the following solved cases.
compound | target_or_system | classification
CC(=O)Oc1c(Br)ccc2cc(C(Br)Br)c(C(=O)c3ccccc3)nc12 | SNB-75 | false (0)
CC(=O)Nc1ccc(/C=c2\sc3nnc(-c4cccnc4)n3c2=O)cc1 | SNB-75 | false (0)
O=C(OC1=CCN(Br)C1=O)C1=C(O)C(=O)N(Br)C1 | SNB-75 | false (0)
O=C(O)CSc1nnc(-c2ccccc2)[nH]1 | SNB-75 | false (0)
C=CC(=O)NC(=N)NC#N | SNB-75 | false (0)

Please share the test call associated with CC(C)=CCOC(=O)C(C)=[N+]=[N-] .
false (0)

# lookup: test call for COC(=O)NC1C(C)OC(OC2C/C=C(/C)C3C=CC4C(OC5CC(OC6CCC(OC7CC(O)C(OC8CCC(O)C(C)O8)C(C)O7)C(C)O6)C(OC(C)=O)C(C)O5)C(C)CC(C)C4C3(C)/C(O)=C3/C(=O)OC4(CC(C=O)=CC(O)C4/C=C\2C)C3=O)CC1(C)[N+](=O)[O-] (stereo not drawn)
false (0)

How did this test come out for COc1cc(C2c3cc(OC)c(OC)c(O)c3C(=O)C3CCC(=O)N32)cc(OC)c1OC (stereo not drawn) ?
false (0)

What outcome does the record of this test show for CC(=O)c1c(O)c(C)c(O)c(Cc2c(O)c3c(c(C(=O)/C=C/c4ccccc4)c2O)OC(C)(C)C=C3)c1O ?
false (0)

Returns: the outcome recorded for CN1CCc2c(sc3nc(S)nc(S)c23)C1 in this assay.
false (0)

Could you please tell me the result logged for COc1ccc2cc(/C=N\NC(=O)Nc3cccc4ccccc34)ccc2c1 in this assay?
false (0)

Called result for CN(C)CCCNC(=O)CCNC(=O)c1cc(NC(=O)c2cc(NC(=O)c3cc(NC(=O)c4nc(NC(=O)CCCNC(=O)c5cc(NC(=O)c6cc(NC(=O)c7cc(NC(=O)c8nccn8C)cn7C)cn6C)cn5C)cn4C)cn3C)cn2C)cn1C
false (0)

Given COC(=O)[C@]1(c2cc3ccccc3n2S(=O)(=O)c2ccccc2)CC2CCC1NC2 (stereo partly drawn) , state the outcome it received in this test.
false (0)

Assay outcome for CC1=C2O[C@]3(O)C=C2C(=C(O)C1=O)[C@@H]1O[C@H](CC[C@H](C)/C=C(\C)C[C@@H](C)C[C@@H]3C)[C@H](C)[C@H](O)[C@H]1C [KENDOMYCIN] : what was it?
true (1)

Entry Cc1ccc(NCC2CC/C(=C\c3ccc(Cl)cc3)C2=O)cc1 (stereo not drawn) : call = ?
false (0)

Identify the outcome logged in this assay for the compound shown: O=C(NCCS(=O)(=O)N1C(=O)C2CCCN2C(=O)[C@@H]1Cc1ccccc1)OCc1ccccc1 (stereo partly drawn)
false (0)

Entry source: ChEMBL document CHEMBL1201862
